Sequence of the target: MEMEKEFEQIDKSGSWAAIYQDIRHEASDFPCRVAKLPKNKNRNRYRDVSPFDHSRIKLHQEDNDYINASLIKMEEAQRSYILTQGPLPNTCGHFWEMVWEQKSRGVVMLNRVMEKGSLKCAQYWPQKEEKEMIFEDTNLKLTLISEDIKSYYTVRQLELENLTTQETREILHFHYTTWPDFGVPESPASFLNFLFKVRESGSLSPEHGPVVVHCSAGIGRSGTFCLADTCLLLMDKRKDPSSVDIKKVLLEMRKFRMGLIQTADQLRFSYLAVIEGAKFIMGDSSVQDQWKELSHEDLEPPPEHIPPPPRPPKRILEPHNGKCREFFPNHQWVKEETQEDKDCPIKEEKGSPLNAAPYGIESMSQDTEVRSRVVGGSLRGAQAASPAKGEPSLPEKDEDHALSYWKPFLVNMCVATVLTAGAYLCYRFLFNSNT
metric: pIC50
Would you please state pIC50, meaning minus log10 of the concentration in mol/L, as a bare number?

Query: Entry `CCOC(=O)C(CCCOc1cccc(OCCN2CCCC2)c1C(=O)CC)C(=O)OCC` has what pIC50?
Reply: 4.73

Query: I am curious: what pIC50 value has been reported for `CCC(=O)c1c(O)cccc1OCCCNc1ccc(C)cc1` ?
Reply: 4.90

Now let's try a different one.
Query: Which pIC50 is reported for this compound? `CCC(=O)c1c(O)cccc1OCCCNc1ccc(OC)cc1`
Reply: 5.08

* * *

assay: Inhibition of alpha-glucosidase at 100 uM
Attribute: inhibition
Write the value in % as a bare number.

Solved cases (3 shown):
Query: Quick one: inhibition for `CCC(=O)c1c(O)cccc1OCCN1CCCC1` ?
Reply: 28.9

Query: I have this compound here, `CCC(=O)c1c(O)cccc1OCCN(C)C` , and I need its recorded inhibition.
Reply: 18.4

Query: Which inhibition reading was recorded for the compound `CCOC(=O)C(CCCOc1cccc(OCCCNc2ccc(C)cc2)c1C(=O)CC)C(=O)OCC` ?
Reply: 11.8

New cases:
Query: // query inhibition value for entry `CCC(=O)c1c(O)cccc1OCCCNc1ccc(OC)cc1`
Reply: 19.3

Query: Requested read-out: inhibition. Entry: `CCC(=O)c1c(O)cccc1OCCN(CC)CC`
Reply: 19.3

Query: I would be grateful if you could share the reported inhibition for `CCC(=O)c1c(O)cccc1OCCCNc1ccc(C)cc1` .
Reply: 18.9

* * *

molecular target: Dipeptidyl peptidase 4 (Homo sapiens) (UniProt P27487); assay: Inhibition of DPP4 at 100 uM
Sequence (P27487 whole entry, looked up): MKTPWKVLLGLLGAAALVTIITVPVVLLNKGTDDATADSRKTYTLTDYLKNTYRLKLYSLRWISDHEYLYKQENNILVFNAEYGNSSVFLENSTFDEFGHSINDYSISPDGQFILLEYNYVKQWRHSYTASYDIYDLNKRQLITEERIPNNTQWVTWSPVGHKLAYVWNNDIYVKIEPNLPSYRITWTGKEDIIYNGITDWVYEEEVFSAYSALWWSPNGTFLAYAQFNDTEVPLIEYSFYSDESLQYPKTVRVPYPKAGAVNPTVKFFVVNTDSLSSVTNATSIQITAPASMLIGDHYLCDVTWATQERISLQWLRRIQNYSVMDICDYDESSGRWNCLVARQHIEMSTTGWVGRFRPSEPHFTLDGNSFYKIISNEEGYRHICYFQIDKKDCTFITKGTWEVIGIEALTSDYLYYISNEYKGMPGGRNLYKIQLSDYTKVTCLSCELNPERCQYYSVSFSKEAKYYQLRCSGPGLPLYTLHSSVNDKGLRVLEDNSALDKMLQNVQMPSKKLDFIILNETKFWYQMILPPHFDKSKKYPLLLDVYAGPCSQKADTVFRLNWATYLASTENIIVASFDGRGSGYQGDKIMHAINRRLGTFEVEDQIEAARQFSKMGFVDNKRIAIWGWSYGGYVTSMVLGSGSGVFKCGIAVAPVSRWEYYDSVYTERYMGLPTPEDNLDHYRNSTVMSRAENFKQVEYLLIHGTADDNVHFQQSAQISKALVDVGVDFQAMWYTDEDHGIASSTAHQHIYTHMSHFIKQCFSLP
metric: inhibition

// known answers, use as guide
Query: Please tell me: inhibition of `CCC(=O)c1c(O)cccc1OCCCN1CCCCC1` , system Dipeptidyl peptidase 4 (Homo sapiens) (UniProt P27487)?
Reply: < 5%

Query: Param readout= inhibition; system= Dipeptidyl peptidase 4 (Homo sapiens) (UniProt P27487); entry= `CCC(=O)c1c(O)cccc1OCCN1CCCCC1` ; returns value.
Reply: < 5%

Query: Under Dipeptidyl peptidase 4 (Homo sapiens) (UniProt P27487): inhibition value of `CCC(=O)c1c(O)cccc1OCCN1CCCC1` ?
Reply: < 5%

Continuing:
Query: Form field: inhibition recorded for `CCOC(=O)C(CCCOc1cccc(OCCN2CCCCC2)c1C(=O)CC)C(=O)OCC` with Dipeptidyl peptidase 4 (Homo sapiens) (UniProt P27487) (enter value)
Reply: < 5%

Query: Param readout= inhibition; system= Dipeptidyl peptidase 4 (Homo sapiens) (UniProt P27487); entry= `CCC(=O)c1c(O)cccc1OCCN(C)C` ; returns value.
Reply: 24.2%

Query: GET /values?readout=inhibition&system=Dipeptidyl peptidase 4 (Homo sapiens) (UniProt P27487)&item= `CCOC(=O)C(CCCOc1cccc(OCCN2CCCC2)c1C(=O)CC)C(=O)OCC`
Reply: 18.3%

Query: Form: Entry = `CCOC(=O)C(CCCOc1cccc(OCCN(CC)CC)c1C(=O)CC)C(=O)OCC` | System = Dipeptidyl peptidase 4 (Homo sapiens) (UniProt P27487) | inhibition = ____
Reply: < 5%

Query: Param readout= inhibition; system= Dipeptidyl peptidase 4 (Homo sapiens) (UniProt P27487); entry= `CCC(=O)c1c(O)cccc1OCCCNc1ccc(C)cc1` ; returns value.
Reply: < 5%

Query: Param readout= inhibition; system= Dipeptidyl peptidase 4 (Homo sapiens) (UniProt P27487); entry= `CCC(=O)c1c(O)cccc1OCCN(CC)CC` ; returns value.
Reply: < 5%

Query: API: value(readout=inhibition, system=Dipeptidyl peptidase 4 (Homo sapiens) (UniProt P27487)) for record `CCOC(=O)C(CCCOc1cccc(OCCCNc2ccc(C)cc2)c1C(=O)CC)C(=O)OCC`
Reply: < 5%

Query: Find inhibition (Dipeptidyl peptidase 4 (Homo sapiens) (UniProt P27487)) for the entry `CCC(=O)c1c(O)cccc1OCCCNc1ccc(OC)cc1`
Reply: 13.7%

Query: Enter reported inhibition observed with Dipeptidyl peptidase 4 (Homo sapiens) (UniProt P27487) for `CCCCNCCCOc1cccc(O)c1C(=O)CC`
Reply: 17.4%

* * *

# inhibition listing for each entry below
target: Dipeptidyl peptidase 4 (Homo sapiens) (UniProt P27487); test: Inhibition of DPP4 at 100 uM

Look over these answered cases.
Query: What value of inhibition has been reported for the following compound? `CCOC(=O)C(CCCOc1cccc(OCCN(C)C)c1C(=O)CC)C(=O)OCC`
Reply: < 5%

Query: Could you share which inhibition value was measured for `CCC(=O)c1c(O)cccc1OCCCN1CCCC1` ?
Reply: 25.6%

New cases:
Query: Any idea what inhibition was measured for `CCCCN(C)CCCOc1cccc(O)c1C(=O)CC` ?
Reply: < 5%

* * *

The entries below come with measured inhibition values attached.
biological target: Tyrosine-protein phosphatase non-receptor type 1 (Homo sapiens) (UniProt P18031); experiment: Inhibition of PTP1B at 100 uM
A bare number is not enough; add the unit after it.

Query: Record lookup: for Tyrosine-protein phosphatase non-receptor type 1 (Homo sapiens) (UniProt P18031), what inhibition belongs to `CCOC(=O)C(CCCOc1cccc(OCCN(C)C)c1C(=O)CC)C(=O)OCC` ?
Reply: 51.1%

Query: Report inhibition for `CCC(=O)c1c(O)cccc1OCCCNc1ccc(C)cc1` tested on Tyrosine-protein phosphatase non-receptor type 1 (Homo sapiens) (UniProt P18031).
Reply: 79.8%

Query: // fetch Tyrosine-protein phosphatase non-receptor type 1 (Homo sapiens) (UniProt P18031) inhibition for `CCC(=O)c1c(O)cccc1OCCN1CCCCC1`
Reply: 27.5%

Others:
Query: Field: inhibition (Tyrosine-protein phosphatase non-receptor type 1 (Homo sapiens) (UniProt P18031)). Entry: `CCOC(=O)C(CCCOc1cccc(OCCN2CCCCC2)c1C(=O)CC)C(=O)OCC`
Reply: 19.6%

Query: # returns recorded inhibition (system: Tyrosine-protein phosphatase non-receptor type 1 (Homo sapiens) (UniProt P18031)) for `CCOC(=O)C(CCCOc1cccc(OCCCNc2ccc(C)cc2)c1C(=O)CC)C(=O)OCC`
Reply: 42.6%

Query: Could you share what inhibition was measured for `CCCCN(C)CCCOc1cccc(O)c1C(=O)CC` , tested on Tyrosine-protein phosphatase non-receptor type 1 (Homo sapiens) (UniProt P18031)?
Reply: 31.9%

Query: # get_value(readout= inhibition, system= Tyrosine-protein phosphatase non-receptor type 1 (Homo sapiens) (UniProt P18031)) for `CCC(=O)c1c(O)cccc1OCCCN1CCCC1`
Reply: 42.1%

Query: Form field - read-out: inhibition; system: Tyrosine-protein phosphatase non-receptor type 1 (Homo sapiens) (UniProt P18031); submitted item: `CCCCNCCCOc1cccc(O)c1C(=O)CC`
Reply: 52.1%

Query: Any idea what inhibition came out for `CCC(=O)c1c(O)cccc1OCCN(CC)CC` on Tyrosine-protein phosphatase non-receptor type 1 (Homo sapiens) (UniProt P18031)?
Reply: 28.8%

Query: Query for Tyrosine-protein phosphatase non-receptor type 1 (Homo sapiens) (UniProt P18031): what inhibition does the record show for `CCOC(=O)C(CCCOc1cccc(OCCN(CC)CC)c1C(=O)CC)C(=O)OCC` ?
Reply: 40.4%

Query: Notebook entry, Tyrosine-protein phosphatase non-receptor type 1 (Homo sapiens) (UniProt P18031) assay: inhibition of `CCC(=O)c1c(O)cccc1OCCN(C)C` = ?
Reply: 19.3%

Query: // lookup inhibition | system=Tyrosine-protein phosphatase non-receptor type 1 (Homo sapiens) (UniProt P18031) | key= `CCOC(=O)C(CCCOc1cccc(OCCN2CCCC2)c1C(=O)CC)C(=O)OCC`
Reply: 58.6%

* * *

Readings of inhibition for the listed compounds
Target: Glucose-6-phosphatase catalytic subunit 1 (Homo sapiens) (UniProt P35575)
Sequence (whole entry): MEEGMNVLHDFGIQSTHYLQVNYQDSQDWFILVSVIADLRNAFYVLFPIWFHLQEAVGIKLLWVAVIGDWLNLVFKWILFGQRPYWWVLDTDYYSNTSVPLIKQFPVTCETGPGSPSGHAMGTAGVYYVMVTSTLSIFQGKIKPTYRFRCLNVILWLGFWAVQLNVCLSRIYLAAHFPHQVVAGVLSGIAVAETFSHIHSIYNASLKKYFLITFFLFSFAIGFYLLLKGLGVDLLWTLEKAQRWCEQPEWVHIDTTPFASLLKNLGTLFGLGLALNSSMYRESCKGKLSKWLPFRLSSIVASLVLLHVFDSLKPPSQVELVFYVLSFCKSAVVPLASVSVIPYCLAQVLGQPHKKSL
Assay: Inhibition of glucose-6-phosphatase at 100 uM

Past entries and their recorded results:
Query: Provide the documented inhibition with Glucose-6-phosphatase catalytic subunit 1 (Homo sapiens) (UniProt P35575) as the system for `CCOC(=O)C(CCCOc1cccc(OCCCNc2ccc(C)cc2)c1C(=O)CC)C(=O)OCC`
Reply: < 5%

Query: Value wanted: inhibition (Glucose-6-phosphatase catalytic subunit 1 (Homo sapiens) (UniProt P35575)) of entry `CCOC(=O)C(CCCOc1cccc(OCCN2CCCCC2)c1C(=O)CC)C(=O)OCC`
Reply: < 5%

Query: Form field: inhibition recorded for `CCC(=O)c1c(O)cccc1OCCCN1CCCCC1` with Glucose-6-phosphatase catalytic subunit 1 (Homo sapiens) (UniProt P35575) (enter value)
Reply: < 5%

Query: Form entry - test system: Glucose-6-phosphatase catalytic subunit 1 (Homo sapiens) (UniProt P35575); read-out: inhibition; compound: `CCOC(=O)C(CCCOc1cccc(OCCN(CC)CC)c1C(=O)CC)C(=O)OCC`
Reply: < 5%

---
Query: Record `CCC(=O)c1c(O)cccc1OCCN1CCCC1` : what is its inhibition with Glucose-6-phosphatase catalytic subunit 1 (Homo sapiens) (UniProt P35575)?
Reply: < 5%
